// reported Relative variation of the maximum absorbance of the charge transfer bands per item
measurement_notes: Stability in organic medium (dimethyl sulfoxide) by UV-Vis spectroscopy
Assay type: physicochemical
test_settings: time 6 h, band 357-425 nm (λmax in column head)
measured_attribute: Relative variation of the maximum absorbance of the charge transfer bands (%)

molecule	reading
O=C(Cc1ccccc1)C1=C[CH]([Ru-]2([PH](c3ccccc3)(c3ccccc3)c3ccccc3)[n+]3ccccc3-c3cccc[n+]32)C=C1.O=S(=O)([O-])C(F)(F)F (stereo not drawn)	0.7
CCOC(=O)Oc1cc[n+]2c(c1)-c1cc(OC)cc[n+]1[Ru-]2([CH]1C=CC=C1)[PH](c1ccccc1)(c1ccccc1)c1ccccc1.O=S(=O)([O-])C(F)(F)F (stereo not drawn)	−0.3
NNC(=O)C1=C[CH]([Ru-]2([PH](c3ccccc3)(c3ccccc3)c3ccccc3)[n+]3ccccc3-c3cccc[n+]32)C=C1.O=S(=O)([O-])C(F)(F)F (stereo not drawn)	0.6

----------
measurement_notes: Stability in aqueous medium (dimethyl sulfoxide/Dulbecco's Modified Eagle Medium) by UV-Vis spectroscopy
Format: physicochemical
test_settings: 5% dimethyl sulfoxide/95% Dulbecco's Modified Eagle Medium; time 6 h; band 292-296 nm (λmax in column head)
measured_attribute: Relative variation of the maximum absorbance of the π→π* transitions (%)

molecule	units_label	reading
CCOC(=O)Oc1cc[n+]2c(c1)-c1cc(OC)cc[n+]1[Ru-]2([CH]1C=CC=C1)[PH](c1ccccc1)(c1ccccc1)c1ccccc1.O=S(=O)([O-])C(F)(F)F (stereo not drawn)	%	−0.4
COc1cc[n+]2c(c1)-c1cc(O)cc[n+]1[Ru-]2([CH]1C=CC=C1)[PH](c1ccccc1)(c1ccccc1)c1ccccc1.O=S(=O)([O-])C(F)(F)F (stereo not drawn)	%	−6.0
CCC(=O)C1=C[CH]([Ru-]2([PH](c3ccccc3)(c3ccccc3)c3ccccc3)[n+]3ccccc3-c3cccc[n+]32)C=C1.O=S(=O)([O-])C(F)(F)F (stereo not drawn)	%	0.1

----------
measurement_notes: Stability in aqueous medium (dimethyl sulfoxide/Dulbecco's Modified Eagle Medium) by UV-Vis spectroscopy
Format: physicochemical
test_settings: 5% dimethyl sulfoxide/95% Dulbecco's Modified Eagle Medium; time 2 h; band 358-400 nm (λmax in column head)
// reported Relative variation of the maximum absorbance of the charge transfer bands per item
measured_attribute: Relative variation of the maximum absorbance of the charge transfer bands

compound	reading
O=C(Cc1ccccc1)C1=C[CH]([Ru-]2([PH](c3ccccc3)(c3ccccc3)c3ccccc3)[n+]3ccccc3-c3cccc[n+]32)C=C1.O=S(=O)([O-])C(F)(F)F (stereo not drawn) [compound 9]	−1.2%
COc1cc[n+]2c(c1)-c1cc(O)cc[n+]1[Ru-]2([CH]1C=CC=C1)[PH](c1ccccc1)(c1ccccc1)c1ccccc1.O=S(=O)([O-])C(F)(F)F (stereo not drawn) [compound 10]	−2.3%
CCOC(=O)Oc1cc[n+]2c(c1)-c1cc(OC)cc[n+]1[Ru-]2([CH]1C=CC=C1)[PH](c1ccccc1)(c1ccccc1)c1ccccc1.O=S(=O)([O-])C(F)(F)F (stereo not drawn) [compound 11]	0.1%
NNC(=O)C1=C[CH]([Ru-]2([PH](c3ccccc3)(c3ccccc3)c3ccccc3)[n+]3ccccc3-c3cccc[n+]32)C=C1.O=S(=O)([O-])C(F)(F)F (stereo not drawn) [compound 4]	−0.7%
CC(=O)C1=C[CH]([Ru-]2([PH](c3ccccc3)(c3ccccc3)c3ccccc3)[n+]3ccccc3-c3cccc[n+]32)C=C1.O=S(=O)([O-])C(F)(F)F (stereo not drawn) [compound 5]	−1.2%
CCC(=O)C1=C[CH]([Ru-]2([PH](c3ccccc3)(c3ccccc3)c3ccccc3)[n+]3ccccc3-c3cccc[n+]32)C=C1.O=S(=O)([O-])C(F)(F)F (stereo not drawn) [compound 8]	−0.7%

----------
measurement_notes: Stability in organic medium (dimethyl sulfoxide) by UV-Vis spectroscopy
Format: physicochemical
test_settings: time 0.75 h, band 357-425 nm (λmax in column head)
// reported Relative variation of the maximum absorbance of the charge transfer bands per item
measured_attribute: Relative variation of the maximum absorbance of the charge transfer bands

compound	reading
CC(=O)C1=C[CH]([Ru-]2([PH](c3ccccc3)(c3ccccc3)c3ccccc3)[n+]3ccccc3-c3cccc[n+]32)C=C1.O=S(=O)([O-])C(F)(F)F (centres unmarked)	0.2%
NNC(=O)C1=C[CH]([Ru-]2([PH](c3ccccc3)(c3ccccc3)c3ccccc3)[n+]3ccccc3-c3cccc[n+]32)C=C1.O=S(=O)([O-])C(F)(F)F (centres unmarked)	−0.2%
O=C(Cc1ccccc1)C1=C[CH]([Ru-]2([PH](c3ccccc3)(c3ccccc3)c3ccccc3)[n+]3ccccc3-c3cccc[n+]32)C=C1.O=S(=O)([O-])C(F)(F)F (centres unmarked)	0.2%
CC(=O)C1=C[CH]([Ru-]2([PH](c3ccccc3)(c3ccccc3)c3ccccc3)[n+]3cccc4ccc5ccc[n+]2c5c43)C=C1.O=S(=O)([O-])C(F)(F)F (centres unmarked)	0.0%
CCOC(=O)Oc1cc[n+]2c(c1)-c1cc(OC)cc[n+]1[Ru-]2([CH]1C=CC=C1)[PH](c1ccccc1)(c1ccccc1)c1ccccc1.O=S(=O)([O-])C(F)(F)F (centres unmarked)	0.1%

----------
measurement_notes: Stability in organic medium (dimethyl sulfoxide) by UV-Vis spectroscopy
Assay type: physicochemical
test_settings: time 3 h, band 357-425 nm (λmax in column head)
Experimental: The stability of the complexes 4-11 in organic and aqueous media was evaluated over 24 h by UV-Vis spectroscopy at room temperature, in dark, on a Jasco V-660 spectrometer using quartz cuvettes (1 cm optical path length). […]
measured_attribute: Relative variation of the maximum absorbance of the charge transfer bands (%)

molecule	reading
COc1cc[n+]2c(c1)-c1cc(O)cc[n+]1[Ru-]2([CH]1C=CC=C1)[PH](c1ccccc1)(c1ccccc1)c1ccccc1.O=S(=O)([O-])C(F)(F)F (centres unmarked)	2.5
CC(=O)C1=C[CH]([Ru-]2([PH](c3ccccc3)(c3ccccc3)c3ccccc3)[n+]3cccc4ccc5ccc[n+]2c5c43)C=C1.O=S(=O)([O-])C(F)(F)F (centres unmarked)	1.3
NNC(=O)C1=C[CH]([Ru-]2([PH](c3ccccc3)(c3ccccc3)c3ccccc3)[n+]3ccccc3-c3cccc[n+]32)C=C1.O=S(=O)([O-])C(F)(F)F (centres unmarked)	0.2
CCOC(=O)Oc1cc[n+]2c(c1)-c1cc(OC)cc[n+]1[Ru-]2([CH]1C=CC=C1)[PH](c1ccccc1)(c1ccccc1)c1ccccc1.O=S(=O)([O-])C(F)(F)F (centres unmarked)	0.0
CC(=O)C1=C[CH]([Ru-]2([PH](c3ccccc3)(c3ccccc3)c3ccccc3)[n+]3ccccc3-c3cccc[n+]32)C=C1.O=S(=O)([O-])C(F)(F)F (centres unmarked)	0.3
CCC(=O)C1=C[CH]([Ru-]2([PH](c3ccccc3)(c3ccccc3)c3ccccc3)[n+]3ccccc3-c3cccc[n+]32)C=C1.O=S(=O)([O-])C(F)(F)F (centres unmarked)	0.0
CC(=O)C1=C[CH]([Ru-]2([PH](c3ccccc3)(c3ccccc3)c3ccccc3)[n+]3cccc4c5nccnc5c5ccc[n+]2c5c43)C=C1.O=S(=O)([O-])C(F)(F)F (centres unmarked)	−0.2
O=C(Cc1ccccc1)C1=C[CH]([Ru-]2([PH](c3ccccc3)(c3ccccc3)c3ccccc3)[n+]3ccccc3-c3cccc[n+]32)C=C1.O=S(=O)([O-])C(F)(F)F (centres unmarked)	0.9

----------
measurement_notes: Stability in aqueous medium (dimethyl sulfoxide/Dulbecco's Modified Eagle Medium) by UV-Vis spectroscopy
Assay type: physicochemical
test_settings: 5% dimethyl sulfoxide/95% Dulbecco's Modified Eagle Medium; time 3 h; band 358-400 nm (λmax in column head)
// reported Relative variation of the maximum absorbance of the charge transfer bands per item
measured_attribute: Relative variation of the maximum absorbance of the charge transfer bands (%)

compound	units_label	reading
CCOC(=O)Oc1cc[n+]2c(c1)-c1cc(OC)cc[n+]1[Ru-]2([CH]1C=CC=C1)[PH](c1ccccc1)(c1ccccc1)c1ccccc1.O=S(=O)([O-])C(F)(F)F (stereo not drawn)	%	0.1
CC(=O)C1=C[CH]([Ru-]2([PH](c3ccccc3)(c3ccccc3)c3ccccc3)[n+]3ccccc3-c3cccc[n+]32)C=C1.O=S(=O)([O-])C(F)(F)F (stereo not drawn)	%	−3.4
COc1cc[n+]2c(c1)-c1cc(O)cc[n+]1[Ru-]2([CH]1C=CC=C1)[PH](c1ccccc1)(c1ccccc1)c1ccccc1.O=S(=O)([O-])C(F)(F)F (stereo not drawn)	%	−3.1
O=C(Cc1ccccc1)C1=C[CH]([Ru-]2([PH](c3ccccc3)(c3ccccc3)c3ccccc3)[n+]3ccccc3-c3cccc[n+]32)C=C1.O=S(=O)([O-])C(F)(F)F (stereo not drawn)	%	−1.4
NNC(=O)C1=C[CH]([Ru-]2([PH](c3ccccc3)(c3ccccc3)c3ccccc3)[n+]3ccccc3-c3cccc[n+]32)C=C1.O=S(=O)([O-])C(F)(F)F (stereo not drawn)	%	−1.4
CCC(=O)C1=C[CH]([Ru-]2([PH](c3ccccc3)(c3ccccc3)c3ccccc3)[n+]3ccccc3-c3cccc[n+]32)C=C1.O=S(=O)([O-])C(F)(F)F (stereo not drawn)	%	−0.6
